targetUnderTest: human PDE1B enzyme (Homo sapiens (Human))
assayInfo: IMAP TR-FRET PDE1B enzymatic assay
Type: biochemical
condition: negative log of half-maximal molar inhibitory concentration; 200 nM FAM-cAMP; values given as bins; read-out: PDE1b (pIC50) (converted)
measure: IC50

// known answers, use as guide
[Q] For Cc1oc2ncnc(NC3(C)CC3)c2c1C(=O)NCc1nnc2ccc(C(F)(F)F)cn12 [Example 463] , what is its reported IC50?
[A] 10 to 100 nM

[Q] For Cc1ncc2c(n1)CCN(C(=O)c1c(C)oc3ncnc(NC4(C)CC4)c13)C2 [Example 39] , what is its reported IC50?
[A] 10 to 100 nM

Hello, I would appreciate it if you could give IC50 for each entry below.
1. Cc1cc(N2CCC(NC(=O)c3c(C)oc4ncnc(NC5(C)CC5)c34)CC2)ncn1 [Example 671]
2. Cc1oc2ncnc(NC3(C)CC3)c2c1C(=O)N1CCc2c(ncn(CF)c2=O)C1 [Example 16]
3. CCN(Cc1cc(OC)ncn1)C(=O)c1c(C)oc2ncnc(NC3(C)CC3)c12 [Example 813]
4. COCCN1CCN(C(=O)c2c(C)oc3ncnc(NC4(C)CC4)c23)CC1 [Example 260]
5. Cc1oc2ncnc(NC3(C)CC3)c2c1C(=O)N1CCc2c(ncnc2C2CCOCC2)C1 [Example 803]
6. Cc1oc2ncnc(NC3(C)CC3)c2c1C(=O)N(C)CCc1nc2cc(F)ccc2[nH]1 [Example 583]
7. Cc1oc2ncnc(NC3(C)CC3)c2c1C(=O)N1CCc2c(ccnc2Cl)C1 [Example 285]
8. Cc1ncccc1NC(=O)c1c(C)oc2ncnc(NC3(C)CC3)c12 [Example 181]

[A]
1. 100 to 1000 nM
2. 10 to 100 nM
3. 100 to 1000 nM
4. 100 to 1000 nM
5. 10 to 100 nM
6. 100 to 1000 nM
7. 10 to 100 nM
8. 10 to 100 nM

----------
targetUnderTest: human PDE1B enzyme (Homo sapiens (Human))
assayInfo: IMAP TR-FRET PDE1B enzymatic assay
Format: biochemical
condition: negative log of half-maximal molar inhibitory concentration; 200 nM FAM-cAMP; values given as bins; read-out: PDE1b (pIC50) (converted)
Procedure: PDE1B inhibition was determined by an IMAP TR-FRET assay. The IMAP TR-FRET PDE assay was optimized for concentration of enzyme, Calmodulin, cAMP or cGMP substrate, DMSO tolerance, and incubation time. […] Plates were incubated for 1 hour at room temperature and were read on a Viewlux multimode plate reader (Perkin Elmer). […] Ratios of acceptor and donor were then calculated. […]
Provide the reported IC50 of each item.

[Q] Which measured IC50 belongs to Cc1oc2ncnc(NC3(C)CC3)c2c1C(=O)NCc1ccsc1 , tested on human PDE1B enzyme (Homo sapiens (Human))?
[A] 10 to 100 nM

[Q] Which measured IC50 belongs to Cc1ccc(CNC(=O)c2c(C)oc3ncnc(NC4(C)CC4)c23)nn1 , tested on human PDE1B enzyme (Homo sapiens (Human))?
[A] 10 to 100 nM

[Q] Which measured IC50 belongs to Cc1oc2ncnc(NC3(C)CC3)c2c1C(=O)N1CCc2c(ncnc2N2CC[C@H](F)C2)C1 , tested on human PDE1B enzyme (Homo sapiens (Human))?
[A] 10 to 100 nM

[Q] Which measured IC50 belongs to Cc1oc2ncnc(NC3(C)CC3)c2c1C(=O)N1CCc2nc(Cl)ncc2C1 , tested on human PDE1B enzyme (Homo sapiens (Human))?
[A] 10 to 100 nM

Hello, I would appreciate it if you could give IC50 for each entry below.
1. Cc1oc2ncnc(NC3(C)CC3)c2c1C(=O)NC(C)(C)C
2. Cc1oc2ncnc(NC3(C)CC3)c2c1C(=O)Nc1cc(C)n(C)n1
3. Cc1oc2ncnc(NC3(C)CC3)c2c1C(=O)NCc1ccncn1
4. Cc1oc2ncnc(NC3(C)CC3)c2c1C(=O)N(C)Cc1cccnc1
5. Cc1oc2ncnc(NC3(C)CC3)c2c1C(=O)NCc1nc2ccc(F)cc2n1C
6. Cc1oc2ncnc(NC3(C)CC3)c2c1C(=O)N1Cc2cnc(-c3ccc(F)cc3)nc2C1
7. Cc1oc2ncnc(NC3(C)CC3)c2c1C(=O)N1CC=C(c2ncc(F)cn2)CC1
8. Cc1oc2ncnc(NC3(C)CC3)c2c1C(=O)N1CCC(c2ncc(OCF)cn2)CC1

[A]
1: 10 to 100 nM; 2: 100 to 1000 nM; 3: 10 to 100 nM; 4: 100 to 1000 nM; 5: 10 to 100 nM; 6: 100 to 1000 nM; 7: 10 to 100 nM; 8: 10 to 100 nM

Hello, I would appreciate it if you could give IC50 for each entry below.
1. Cc1oc2ncnc(NC3(C)CC3)c2c1C(=O)NCC(C)C
2. Cc1oc2ncnc(NC3(C)CC3)c2c1C(=O)N1CCc2ccncc2C1

[A]
1. 10 to 100 nM
2. 100 to 1000 nM

Hello, I would appreciate it if you could give IC50 for each entry below.
1. Cc1oc2ncnc(NC3(C)CC3)c2c1C(=O)NCc1cc2ccc(F)cc2[nH]c1=O
2. Cc1oc2ncnc(NC3(C)CC3)c2c1C(=O)NC1COC1

[A]
["10 to 100 nM", "100 to 1000 nM"]

Hello, I would appreciate it if you could give IC50 for each entry below.
1. COc1ccccc1C(C)NC(=O)c1c(C)oc2ncnc(NC3(C)CC3)c12 (stereo in doubt) [Example 482]
2. Cc1oc2ncnc(NC3(C)CC3)c2c1C(=O)N1Cc2cnc(C(F)(F)F)nc2C1

[A]
1. 10 to 100 nM
2. 100 to 1000 nM
